For each of the binders below, state its % CD137 ligand blocking activity.
biological target: T1, hCD137-mFc-Avi (human, UniProt Q07011 24-186); experiment: ELISA, hCD137-mFc-Avi coated, 100 nM antibody, competitor CD137L-His; normalised to G1/11D4 = 0 and G1/MOR7480.1 = 100; mean of n=2
T1 construct: dimer; also called human CD137-mFc-Avi; human CD137-mFc
Report the figure in % without appending any unit label.

Task: Look up % CD137 ligand blocking activity: FS20-22-49AA/FS30-5-37 (bispecific antibody, human IgG1, kappa, L234A L235A, V domains shown, M100D to I and M100H to L against FS30-5; also called FS30-5-37 in mAb^2 format) VH: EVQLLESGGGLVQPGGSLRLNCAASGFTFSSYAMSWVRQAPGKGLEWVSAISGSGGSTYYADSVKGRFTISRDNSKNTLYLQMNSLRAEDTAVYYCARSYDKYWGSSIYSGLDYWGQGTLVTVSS VL: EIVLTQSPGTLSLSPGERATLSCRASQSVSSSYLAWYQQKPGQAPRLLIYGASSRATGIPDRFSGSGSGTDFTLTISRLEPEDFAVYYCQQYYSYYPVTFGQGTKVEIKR
Output: 107

Task: Repeat for the following binder: FS20-22-49AA/FS30-10-12 (bispecific antibody, human IgG1, kappa, L234A L235A, V domains shown, M97 (Kabat) to T against FS30-10; also called FS30-10-12 in mAb^2 format) VH: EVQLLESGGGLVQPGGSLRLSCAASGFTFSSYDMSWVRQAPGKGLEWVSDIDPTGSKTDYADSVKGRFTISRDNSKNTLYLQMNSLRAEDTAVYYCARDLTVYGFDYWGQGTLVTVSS VL: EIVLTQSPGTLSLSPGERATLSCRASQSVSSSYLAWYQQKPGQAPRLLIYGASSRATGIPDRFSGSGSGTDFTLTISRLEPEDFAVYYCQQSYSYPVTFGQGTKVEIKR
Output: 53.8

Task: Repeat for the following binder: FS20-22-49AA/4420 (bispecific antibody, human IgG1, kappa, L234A L235A, V domains shown, anti-OX40 Fcab FS20-22-49AA with the Fab of anti-FITC antibody 4420; IgG1 LALA; also called negative control mAb^2) VH: EVKLDETGGGLVQPGRPMKLSCVASGFTFSDYWMNWVRQSPEKGLEWVAQIRNKPYNYETYYSDSVKGRFTISRDDSKSSVYLQMNNLRVEDMGIYYCTGSYYGMDYWGQGTSVTVSS VL: DVVMTQTPLSLPVSLGDQASISCRSSQSLVHSNGNTYLRWYLQKPGQSPKVLIYKVSNRFSGVPDRFSGSGSGTDFTLKISRVEAEDLGVYFCSQSTHVPWTFGGGTKLEIKR
Output: -0.3

Task: Repeat for the following binder: FS20-22-49AA/FS30-10-16 (bispecific antibody, human IgG1, kappa, L234A L235A, V domains shown, M97 (Kabat) to L against FS30-10; also called FS30-10-16 in mAb^2 format) VH: EVQLLESGGGLVQPGGSLRLSCAASGFTFSSYDMSWVRQAPGKGLEWVSDIDPTGSKTDYADSVKGRFTISRDNSKNTLYLQMNSLRAEDTAVYYCARDLLVYGFDYWGQGTLVTVSS VL: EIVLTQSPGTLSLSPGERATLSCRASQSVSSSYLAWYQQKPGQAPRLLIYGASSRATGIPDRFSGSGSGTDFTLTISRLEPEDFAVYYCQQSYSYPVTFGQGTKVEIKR
Output: 48.1

Attribution: patent US12534534
